Recorded values, source paper PMC9988221.

Target: CYP2C9 (Homo sapiens, UniProt P11712)
Sequence (P11712 whole entry): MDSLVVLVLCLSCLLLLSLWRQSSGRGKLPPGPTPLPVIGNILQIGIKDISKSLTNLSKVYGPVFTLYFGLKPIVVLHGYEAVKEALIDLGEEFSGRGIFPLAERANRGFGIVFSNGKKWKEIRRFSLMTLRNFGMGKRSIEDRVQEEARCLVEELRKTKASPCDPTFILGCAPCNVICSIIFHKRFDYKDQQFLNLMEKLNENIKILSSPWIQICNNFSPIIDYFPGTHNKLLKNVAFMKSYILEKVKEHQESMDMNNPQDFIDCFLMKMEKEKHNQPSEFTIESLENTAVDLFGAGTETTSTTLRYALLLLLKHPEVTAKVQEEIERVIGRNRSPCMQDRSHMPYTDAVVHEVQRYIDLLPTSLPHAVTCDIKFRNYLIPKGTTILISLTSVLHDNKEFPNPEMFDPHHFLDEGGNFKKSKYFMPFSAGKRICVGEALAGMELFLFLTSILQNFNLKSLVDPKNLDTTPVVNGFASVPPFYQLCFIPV
Readout type: IC50 (µM)
Give your result in µM as a bare value.

Lookup: Please provide the recorded IC50 for C[C@@H](Oc1ccc(S(C)(=O)=O)cc1C(=O)N1C[C@@H]2C[C@]2(c2cc(C(F)(F)F)on2)C1)C(F)(F)F [BI 425809] , tested on CYP2C9 (Homo sapiens, UniProt P11712).
Found: 54.9

* * *

Biological target: P-gp (Homo sapiens, UniProt P08183)
Sequence (P08183 whole entry): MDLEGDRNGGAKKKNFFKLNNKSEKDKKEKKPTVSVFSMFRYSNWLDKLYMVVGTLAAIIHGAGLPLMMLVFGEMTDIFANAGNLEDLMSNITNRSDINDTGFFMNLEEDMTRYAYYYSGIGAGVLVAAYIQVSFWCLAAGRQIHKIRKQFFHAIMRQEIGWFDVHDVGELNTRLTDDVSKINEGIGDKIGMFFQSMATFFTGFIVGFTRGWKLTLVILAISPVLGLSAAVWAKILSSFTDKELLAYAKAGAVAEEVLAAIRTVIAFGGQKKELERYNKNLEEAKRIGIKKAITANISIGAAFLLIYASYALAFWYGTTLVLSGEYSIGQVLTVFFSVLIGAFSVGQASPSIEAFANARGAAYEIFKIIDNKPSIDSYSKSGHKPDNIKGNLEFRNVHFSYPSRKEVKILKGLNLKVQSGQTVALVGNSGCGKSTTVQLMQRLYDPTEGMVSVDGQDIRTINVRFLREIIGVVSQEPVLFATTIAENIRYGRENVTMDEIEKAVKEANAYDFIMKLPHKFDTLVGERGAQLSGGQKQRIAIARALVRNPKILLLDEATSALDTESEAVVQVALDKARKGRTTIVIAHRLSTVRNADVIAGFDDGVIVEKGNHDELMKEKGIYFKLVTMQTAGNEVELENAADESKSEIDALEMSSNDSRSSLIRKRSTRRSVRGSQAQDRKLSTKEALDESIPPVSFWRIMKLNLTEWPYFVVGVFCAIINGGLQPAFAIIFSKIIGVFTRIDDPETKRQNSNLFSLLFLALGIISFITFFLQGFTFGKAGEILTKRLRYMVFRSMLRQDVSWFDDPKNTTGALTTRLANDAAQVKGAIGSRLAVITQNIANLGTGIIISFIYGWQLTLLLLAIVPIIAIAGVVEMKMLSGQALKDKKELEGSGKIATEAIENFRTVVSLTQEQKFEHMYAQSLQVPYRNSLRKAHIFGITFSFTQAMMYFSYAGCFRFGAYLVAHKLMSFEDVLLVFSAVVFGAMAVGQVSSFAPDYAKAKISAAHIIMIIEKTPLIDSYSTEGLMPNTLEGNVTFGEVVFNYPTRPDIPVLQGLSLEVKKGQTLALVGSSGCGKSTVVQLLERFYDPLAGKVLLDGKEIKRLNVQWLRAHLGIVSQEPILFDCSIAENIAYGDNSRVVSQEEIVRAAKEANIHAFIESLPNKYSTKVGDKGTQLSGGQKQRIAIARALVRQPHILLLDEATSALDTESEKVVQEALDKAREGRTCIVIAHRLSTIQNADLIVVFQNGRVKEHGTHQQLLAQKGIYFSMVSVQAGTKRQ
Readout type: pIC50
pIC50 is a log-scale quantity: -log10 of the concentration expressed in molar.

Lookup: Missing value: pIC50, P-gp (Homo sapiens, UniProt P08183), entry "C[C@@H](Oc1ccc(S(C)(=O)=O)cc1C(=O)N1C[C@@H]2C[C@]2(c2cc(C(F)(F)F)on2)C1)C(F)(F)F" . Fill in?
Found: 4.85

* * *

System: CYP3A4/5
Conditions: human, human liver microsomes
pIC50: −log10 of the molar value.
Readout type: pIC50

Lookup: // query pIC50 value for entry "C[C@@H](Oc1ccc(S(C)(=O)=O)cc1C(=O)N1C[C@@H]2C[C@]2(c2cc(C(F)(F)F)on2)C1)C(F)(F)F"
Found: < 4.00

* * *

System: CYP3A4 mRNA
Format: in vitro ADME, human
Details: human, sandwich-cultured primary human hepatocytes
Readout type: EC50 at 48 h (nM)
Value expressed in nM; do not type the unit.

Lookup: What does the data say about its EC50 at 48 h? Entry: C[C@@H](Oc1ccc(S(C)(=O)=O)cc1C(=O)N1C[C@@H]2C[C@]2(c2cc(C(F)(F)F)on2)C1)C(F)(F)F [BI 425809]
Found: 1960

* * *

The entries below come with measured AUC(0-inf) values attached.
Format: in vivo, human
Conditions: male, human, plasma, AUC0–∞, arithmetic mean (SD), +BI 425809 25 mg at steady state
Just so you know, I need the unit written after the number.

Compound	AUC(0-inf)
Cc1ncc2n1-c1ccc(Cl)cc1C(c1ccccc1F)=NC2 [Midazolam, midazolam]	17.4 ng·h/mL
C[C@H]1O[C@@H](O[C@H]2[C@@H](O)C[C@H](O[C@H]3[C@@H](O)C[C@H](O[C@H]4CC[C@@]5(C)[C@H](CC[C@@H]6[C@@H]5C[C@@H](O)[C@]5(C)[C@@H](C7=CC(=O)OC7)CC[C@]65O)C4)O[C@@H]3C)O[C@@H]2C)C[C@H](O)[C@@H]1O [Digoxin, digoxin]	20.1 ng·h/mL

Below: the item to evaluate.
Lookup: # AUC(0-inf) lookup, item COc1ccc2[nH]c([S+]([O-])Cc3ncc(C)c(OC)c3C)nc2c1 (stereo not drawn) [Omeprazole, omeprazole]
Found: 609 ng·h/mL

* * *

Type: in vivo, human
Conditions: male, human, plasma, t1/2, gMean (geometric coefficient of variation), on a background of steady-state BI 425809
Readout type: half-life (h)
Write the answer as a number in h, unit excluded.

Lookup: Please give the measured half-life for this molecule: "Cc1ncc2n1-c1ccc(Cl)cc1C(c1ccccc1F)=NC2"
Found: 2.8

* * *

Assay type: in vivo, human
Conditions: male, human, plasma, t1/2, arithmetic mean (SD), +BI 425809 25 mg at steady state
Readout type: half-life (h)
Write it as a number; the unit h goes unstated.

Lookup: Value lookup for half-life; key = "C[C@H]1O[C@@H](O[C@H]2[C@@H](O)C[C@H](O[C@H]3[C@@H](O)C[C@H](O[C@H]4CC[C@@]5(C)[C@H](CC[C@@H]6[C@@H]5C[C@@H](O)[C@]5(C)[C@@H](C7=CC(=O)OC7)CC[C@]65O)C4)O[C@@H]3C)O[C@@H]2C)C[C@H](O)[C@@H]1O"
Found: 54.2
